Would you mind telling me the reported MCC of each entry?
Experiment: Cytotoxicity against MDCK cells assessed as changes in cell morphology
Assay type: cell-based, Canis lupus familiaris
Settings: dog
Give bare numbers, in µM.

{"COMPOUND": "CN1CC12C1CC3CC(C1)CC2C3 (stereo not given)", "MCC / µM": 23}
{"COMPOUND": "NC(=O)c1ncn([C@@H]2O[C@H](CO)[C@@H](O)[C@H]2O)n1", "MCC / µM": 20}
{"COMPOUND": "C1C2CC3CC1CC(C2)C31CN1 (stereo not given)", "MCC / µM": 25}
{"COMPOUND": "CN1CCC2(CC1)C1CC3CC(C1)CC2C3.Cl", "MCC / µM": 4}
{"COMPOUND": "CN1CCC12C1CC3CC(C1)CC2C3 (stereo not given)", "MCC / µM": 50}
{"COMPOUND": "C1CC2(CCN1)C1CC3CC(C1)CC2C3.Cl", "MCC / µM": 17}
{"COMPOUND": "C1CC2(N1)C1CC3CC(C1)CC2C3 (stereo not given)", "MCC / µM": 250}

Here is the next item to consider.
Value lookup for MCC; key = `C1C2CC3CC1CC(C2)C31CNC1` 113
